Item-by-item account of melting point
quantity_kind: melting point (°C)

[[record]]
molecule = "O=C(Nc1cccc([N+](=O)[O-])c1)c1ccccc1"
quantity_kind = "melting point"
measurement = 155

[[record]]
molecule = "O=C(c1ccc2c3c(cccc13)CC2)C(Br)c1ccccc1 (stereo not given)"
quantity_kind = "melting point"
measurement = 118

[[record]]
molecule = "CC(=O)CCc1cc2c(cc1[N+](=O)[O-])CCC(C)N2C(=O)c1ccc([N+](=O)[O-])cc1 (stereo not given)"
quantity_kind = "melting point"
measurement = 173

[[record]]
molecule = "O=C(CCC(=O)Oc1ccccc1)Oc1ccccc1"
quantity_kind = "melting point"
measurement = 121

[[record]]
molecule = "CC(=O)N[C@H]1C(O)O[C@H](CO)[C@@H](O)[C@@H]1O (stereo not given in full)"
quantity_kind = "melting point"
measurement = 211

[[record]]
molecule = "CCCC(C1CCCCC1)C1CCCCC1"
quantity_kind = "melting point"
measurement = -10.5

[[record]]
molecule = "Cc1nn(C)c(C)c1C=O"
quantity_kind = "melting point"
measurement = 81.5

[[record]]
molecule = "Cc1cccc(OCC(O)CNC(C)(C)C)c1C (stereo not given)"
quantity_kind = "melting point"
measurement = 57

[[record]]
molecule = "CCS(=O)(=O)C(C)(C)S(=O)(=O)CC"
quantity_kind = "melting point"
measurement = 126

[[record]]
molecule = "c1ccc(C2=NNCC2)cc1"
quantity_kind = "melting point"
measurement = 45.8

[[record]]
molecule = "Nc1cccc2c1CCCC2"
quantity_kind = "melting point"
measurement = 38

[[record]]
molecule = "CCN(CC)CCSC(=O)N(c1ccccc1)c1ccccc1"
quantity_kind = "melting point"
measurement = 48

[[record]]
molecule = "O=C(C1=NOC2C(=O)N(c3ccccc3[N+](=O)[O-])C(=O)C12)c1ccc(Cl)cc1 (stereo not given)"
quantity_kind = "melting point"
measurement = 173

[[record]]
molecule = "N#Cc1ccc(F)cc1Cl"
quantity_kind = "melting point"
measurement = 64

[[record]]
molecule = "Brc1ccc2cc(Br)ccc2c1"
quantity_kind = "melting point"
measurement = 165

[[record]]
molecule = "O=Nc1c(-c2ccc([N+](=O)[O-])cc2)nc2ncccn12"
quantity_kind = "melting point"
measurement = 191

